# assay_target: T1, human catalase (Homo sapiens, UniProt P04040)
# T1 sequence (P04040 2-527 limits assumed): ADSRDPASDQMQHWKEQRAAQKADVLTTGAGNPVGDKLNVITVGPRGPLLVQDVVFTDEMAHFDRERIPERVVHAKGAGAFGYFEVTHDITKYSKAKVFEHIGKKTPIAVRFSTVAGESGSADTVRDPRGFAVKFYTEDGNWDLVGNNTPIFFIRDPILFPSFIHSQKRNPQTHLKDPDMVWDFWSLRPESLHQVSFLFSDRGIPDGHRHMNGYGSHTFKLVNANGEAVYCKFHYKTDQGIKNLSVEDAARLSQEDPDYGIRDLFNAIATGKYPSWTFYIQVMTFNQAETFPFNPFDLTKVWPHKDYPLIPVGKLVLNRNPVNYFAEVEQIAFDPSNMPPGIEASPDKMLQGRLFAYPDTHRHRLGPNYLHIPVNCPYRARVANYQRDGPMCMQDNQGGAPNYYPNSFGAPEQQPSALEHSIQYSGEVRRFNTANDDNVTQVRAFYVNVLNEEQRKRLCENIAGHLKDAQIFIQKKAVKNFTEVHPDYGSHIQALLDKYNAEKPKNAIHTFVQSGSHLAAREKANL
# protocol_description: ELISA selection of clones binding to human catalase
measure: binding to human catalase

>>> observed_result("aCATcb0974: single domain VHH fragment that binds to and neutralizes human catalase; SEQ ID NO: 12 (protein, catalase binding) VHH: MAQVQLVESGGGLVQPGGSLRLSCAASGSIFSIASMGWYRQAPGKQRDLVATITSDGSTKYADSVKGRFTISRDNAKNTMYLQMNSVKPEDAAVYYCNADADDLEPGSYDYDYWGQGTQVTVSSKKKHHHHHH")
"bind to human catalase"
>>> observed_result("aCATcb0972: single domain VHH fragment that binds to and neutralizes human catalase; SEQ ID NO: 10 (protein, catalase binding) VHH: MAQVQLVESGGGLVQAGGSLRLSCAASERTFNTYGMGWFRQAPGKEREFVATISWSGDSTYYADSVKGRFTISRDNAKNTMYLQMNSLKPEDTAVYYCNANSEYGDSYWGQGTQVTVSSKKKHHHHHH")
"bind to human catalase"
>>> observed_result("aCATcb0973: single domain VHH fragment binding to human catalase, but not neutralizing; SEQ ID NO: 11 (protein, catalase binding) VHH: MAEVQLVESGGGLVQPGGSLRLSCAVSGFIFNTYSMRWGRQAPGKGLEWVSSISTGGYSTYADSVKGRFTISRDNAKNLVYLQMNSLKPEDTAVYYCGWGAFVRGERPQGQGTQVTVSSKKKHHHHHH")
"bind to human catalase"
